- ASSAY_NOTES: growth inhibitors of H69AR lung tumor, primary screen, human, duplicate replicates (AID 580);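 also: 100% = mean luminescence of untreated wells and 0% = no signal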
- CONDITION: H69AR lung tumor cells viability, ATP luminescence, 72 h; at 10 µM
Activity calls are given as the source filed them.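 The calls were made as follows: active = viability at or under a set limit in both replicates, limit being median viability minus 3 SD (cut at about 48% in these data, passing the limit was not always enough); inconclusive = at or under the limit in just one replicate; inactive = at or above the limit in both replicates.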
Entry note: the call must match one of active, inactive

MOLECULE	CAT
O=C(NS(=O)(=O)c1ccc(NC(=O)C2CCCO2)cc1)c1ccccc1 (configuration not stated)	inactive

Per the assay record, what outcome was assigned to CC(=O)c1cccc(NC(=O)NCc2ccccn2)c1 ?
inactive

Per the assay record, what outcome was assigned to CCOC(=O)C1CCCN(C(=O)c2sc3nc(-c4ccccc4)cn3c2C)C1 (configuration not stated) ?
inactive

Per the assay record, what outcome was assigned to Cc1noc(C)c1C(=O)Nc1sc(C)c(C)c1C#N ?
inactive

Per the assay record, what outcome was assigned to COC(=O)c1cccc(S(=O)(=O)N2CCC(C)CC2)c1 ?
inactive

Per the assay record, what outcome was assigned to Cc1c(N(C)C)nc2ccccc2c1N ?
inactive

Per the assay record, what outcome was assigned to Cn1c(=O)[nH]c(=O)c2c1nc(NCCCn1ccnc1)n2Cc1ccccc1 ?
inactive

Per the assay record, what outcome was assigned to O=C(NC1CCCCC1)C1CCCN1C(=O)NCc1ccccc1 (configuration not stated) ?
inactive

Per the assay record, what outcome was assigned to CC1CN(c2nc3ccccc3nc2C(C#N)C(=O)OC2CCCCC2)CC(C)O1 (configuration not stated) ?
inactive

Per the assay record, what outcome was assigned to COc1ccc(N2CCN(C(=O)CSc3ccccc3N)CC2)cc1 ?
inactive

Per the assay record, what outcome was assigned to O=S(=O)(Nc1ccc2c(c1)OCO2)c1ccc(Br)s1 ?
inactive

Per the assay record, what outcome was assigned to CC(=O)NC(Cc1ccc(C)cc1)C(=O)NC1CCN(C(=O)c2cnccn2)CC1 (configuration not stated) ?
inactive

Per the assay record, what outcome was assigned to Cc1[nH]c2ccccc2c1Cc1nnc(SCC(=O)NCc2ccco2)o1 ?
inactive

Per the assay record, what outcome was assigned to CCOc1ccc2c(c1)c1nnc(SCC(=O)N3CCC(C)CC3)nc1n2C ?
inactive

====

In this section we review reported viability values for a set of molecules.
- ASSAY_NOTES: reversal of MRP1-mediated doxorubicin resistance, pilot screen, H69AR cells, doxorubicin co-treatment (AID 601)
- CONDITION: H69AR cells, CellTiter-Glo, 72 h; compound alone cytotoxicity; at 10 µM
Dear colleague, please return just the value in %, with no unit written.

Reference set, count: 5
MOLECULE	READING_UNIT	RECORDED_VALUE
O=C(NCC1CCCO1)C1CC(c2ccc(Cl)c(Cl)c2)=NO1 (stereo unspecified)	%	104
Cc1nc2ccc(NC(=O)NCc3ccco3)cc2s1	%	90.6
CCOC(=O)Cn1c(CN2CCOCC2)nc2c1c(=O)[nH]c(=O)n2C	%	99.7
CC1CCN(C(=S)c2ccccc2O)CC1	%	89
Cc1cc(NC(=O)c2cc(-c3ccco3)on2)n(-c2ccccc2)n1	%	106

Fill blank: measured viability of the molecule Cc1ccc(N2C(N)=NC(N)=NC23CCCC3)c(C)c1 is ____.
106

Fill blank: measured viability of the molecule CCc1n[nH]c2c1C(=O)CC(C)(C)C2 is ____.
89.1

Fill blank: measured viability of the molecule CCOC(=O)CCC(=O)c1c(C)oc2ccc(OC)cc12 is ____.
88.4

Fill blank: measured viability of the molecule COc1ccccc1-c1cc(C(=O)Nc2cc(C)nn2-c2ccccc2)no1 is ____.
15.5

Fill blank: measured viability of the molecule O=C(CN1CCN(C2CCCCC2)CC1)Nc1ccccc1-c1ccccc1 is ____.
84.7

Fill blank: measured viability of the molecule CC(C)OC(=O)C(C)(C)Oc1ccc(C(=O)c2ccc(Cl)cc2)cc1 is ____.
103

Fill blank: measured viability of the molecule Cn1c(Cc2ccccc2)nnc1SCC(=O)N1CCOCC1 is ____.
101

Fill blank: measured viability of the molecule CC(C)Oc1ccc(C2C(C(=O)c3ccco3)=C(O)C(=O)N2CCCN(C)C)cc1 (stereo unspecified) is ____.
110

Fill blank: measured viability of the molecule Cn1c(NC(=O)c2cccc(Cn3cc(Cl)cn3)c2)nc2ccccc21 is ____.
68.9

Fill blank: measured viability of the molecule Nc1nonc1-n1nnc(C(=O)c2ccccc2)c1-c1ccccc1 is ____.
99.4

Fill blank: measured viability of the molecule Cc1ccc(CN2C(=O)CCC2C(=O)NCCCN2CCCC(C)C2)cc1 (stereo unspecified) is ____.
97.4

The measured values listed here are drawn from PubChem BioAssay.
